Molecular target: human IL-23R (Homo sapiens)
Sequence (Q5VWK5 22-629): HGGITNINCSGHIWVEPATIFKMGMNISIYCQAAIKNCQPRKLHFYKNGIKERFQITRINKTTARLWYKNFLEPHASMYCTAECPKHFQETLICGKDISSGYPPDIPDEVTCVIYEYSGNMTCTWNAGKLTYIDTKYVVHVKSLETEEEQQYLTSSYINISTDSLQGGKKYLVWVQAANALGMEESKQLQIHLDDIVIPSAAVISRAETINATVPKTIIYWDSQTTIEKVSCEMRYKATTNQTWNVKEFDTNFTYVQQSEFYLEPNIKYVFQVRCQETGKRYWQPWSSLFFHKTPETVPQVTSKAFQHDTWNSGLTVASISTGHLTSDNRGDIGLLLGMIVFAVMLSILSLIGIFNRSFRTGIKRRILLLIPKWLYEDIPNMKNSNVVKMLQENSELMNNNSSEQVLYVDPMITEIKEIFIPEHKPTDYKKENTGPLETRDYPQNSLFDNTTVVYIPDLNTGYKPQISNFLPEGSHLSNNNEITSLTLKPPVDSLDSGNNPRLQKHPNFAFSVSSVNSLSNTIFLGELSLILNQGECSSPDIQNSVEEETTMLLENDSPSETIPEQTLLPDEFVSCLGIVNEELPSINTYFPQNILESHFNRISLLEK
Assay: biochemical
Conditions: read-out: % displacement (hIL-23R NIuc)
Where a SMILES comes first, the peptide text is derived from it. Bridges are numbered along the chain shown (N, C = ends). [ ]: non-standard residue; d: D form. 2Nal = N[C@@H](Cc1ccc2ccccc2c1)C(=O)O; AEF = NCCOc1ccc(C[C@H](N)C(=O)O)cc1; 3Pal = N[C@@H](Cc1cccnc1)C(=O)O; αMeL = CC(C)C[C@](C)(N)C(=O)O; dOrn = NCCC[C@@H](N)C(=O)O; Dab = NCC[C@H](N)C(=O)O
measurement-type: Emax (%)
Reply numerically in %, unit not repeated.

State recorded Emax with human IL-23R (Homo sapiens), entry CC[C@H](C)[C@@H]1NC(=O)[C@@H]2CCCCNC(=O)CC[C@@H](C(=O)N[C@H](Cc3cnc[nH]3)C(=O)N[C@@H](Cc3cccnc3)C(=O)NC)NC(=O)[C@](C)(CC(C)C)NC(=O)[C@H](Cc3ccc4ccccc4c3)NC(=O)[C@H](Cc3ccc(OCCN)cc3)NC(=O)[C@H](CCC(=O)N2)NC(=O)[C@H](CCC(N)=O)NC(=O)[C@H](Cc2c[nH]c3ccccc23)NC(=O)[C@H](C(C)C)NC1=O , no comment.
101

Continuing:
State recorded Emax with human IL-23R (Homo sapiens), entry COc1ccc(C[C@@H]2NC(=O)[C@@H]3CCC(=O)N[C@@H](CCCCNC(=O)CC[C@@H](C(=O)N[C@@H](CCCCNC(=O)CCc4ccccn4)C(N)=O)NC(=O)[C@](C)(CC(C)C)NC(=O)[C@H](Cc4ccc5ccccc5c4)NC2=O)C(=O)N[C@@H]([C@@H](C)O)C(=O)N[C@@H](C(C)C)C(=O)N[C@@H](Cc2c[nH]c4ccccc24)C(=O)N[C@@H](CCC(N)=O)C(=O)N3)cc1 , no comment.
96

State recorded Emax with human IL-23R (Homo sapiens), entry CC(C)C[C@]1(C)NC(=O)[C@H](Cc2ccc3ccccc3c2)NC(=O)[C@H](Cc2ccc(OCCN)cc2)NC(=O)[C@@H]2CC(=O)N[C@H](CCCNC(=O)CC[C@@H](C(=O)N[C@@H](CCN)C(=O)N[C@@H](Cc3cccnc3)C(N)=O)NC1=O)C(=O)N[C@@H]([C@@H](C)O)C(=O)N[C@@H](C(C)C)C(=O)N[C@@H](Cc1c[nH]c3ccccc13)C(=O)N[C@@H](CCC(N)=O)C(=O)N2 [Compound 10] ([dOrn]TVWQD[AEF][2Nal][αMeL]E[Dab][3Pal]-NH2; lactam 1-10, N-6) , no comment.
107

* * *

Molecular target: UniProt Q5VWK5
Assay: biochemical
*1 amine or outer side, *2 acyl side, *3 side chain or, on linkers, in order; H or OH if unused. Where a SMILES comes first, the peptide text is derived from it. Bridges are numbered along the chain shown (N, C = ends). [ ]: non-standard residue; d: D form. X14 = O=C(CC[C@H](N[*:2])C(=O)[*:3])[*:1]; 2Nal = N[C@@H](Cc1ccc2ccccc2c1)C(=O)O; AEF = NCCOc1ccc(C[C@H](N)C(=O)O)cc1; X1 = O=C(Cc1ccc(CN[*:1])cc1)[*:2]; 3Pal = N[C@@H](Cc1cccnc1)C(=O)O; αMeL = CC(C)C[C@](C)(N)C(=O)O; CH2COCH2 = O=C(C[*:1])C[*:2]; 3Amb = NCc1cccc(C(=O)O)c1; Dab = NCC[C@H](N)C(=O)O
Reported values of % displacement (hIL-23R NIuc) for individual entries
Reply numerically in %, unit not repeated.

Find the measured % displacement (hIL-23R NIuc) of CC(C)C[C@]1(C)NC(=O)[C@H](Cc2ccc3ccccc3c2)NC(=O)[C@H](Cc2ccc(OCCN)cc2)NC(=O)[C@@H]2CSCC(=O)CSC[C@H](NC(=O)[C@H](CO)NC(=O)c3cccc(c3)CNC(=O)CC[C@@H](C(=O)N[C@@H](CCCNC(=N)N)C(=O)N[C@@H](Cc3cccnc3)C(N)=O)NC1=O)C(=O)N[C@@H](Cc1c[nH]c3ccccc13)C(=O)N[C@@H](CCC(N)=O)C(=O)N2 [Ref 78, reference compound] ([3Amb]SCWQC[AEF][2Nal][αMeL]ER[3Pal]-NH2; linker 3-6 via CH2COCH2; lactam N-10) and report it.
100

Find the measured % displacement (hIL-23R NIuc) of CC[C@H](C)[C@@H]1NC(=O)[C@@H]2CCCCNC(=O)CC[C@@H](C(=O)NCC(=O)N[C@H](Cc3cccnc3)C(N)=O)NC(=O)[C@](C)(C(C)C)NC(=O)[C@H](CC3CC3)NC(=O)[C@H](Cc3ccc(C)cc3)NC(=O)[C@H](CCC(=O)N2)NC(=O)[C@H](CCC(N)=O)NC(=O)[C@H](Cc2c[nH]c3ccccc23)NC(=O)[C@H](C(C)C)NC1=O [Compound 23] and report it.
111

Find the measured % displacement (hIL-23R NIuc) of CC(C)C[C@]1(C)NC(=O)[C@H](Cc2ccc3ccccc3c2)NC(=O)[C@H](Cc2ccc(OCCN)cc2)NC(=O)[C@@H]2CSCC(=O)CSC[C@H](NC(=O)[C@H](CO)NC(=O)Cc3ccc(cc3)CNC(=O)CC[C@@H](C(=O)N[C@@H](CCN)C(=O)N[C@@H](Cc3cccnc3)C(N)=O)NC1=O)C(=O)N[C@@H](Cc1c[nH]c3ccccc13)C(=O)N[C@@H](CCC(N)=O)C(=O)N2 [Ref 120, reference compound] ([X1]SCWQC[AEF][2Nal][αMeL]E[Dab][3Pal]-NH2; linker 3-6 via CH2COCH2; lactam N-10) and report it.
94

Find the measured % displacement (hIL-23R NIuc) of CNC(=O)[C@H](Cc1cccnc1)NC(=O)[C@H](CCN)NC(=O)[C@@H]1CCCCNC(=O)[C@@H]2CCC(=O)N[C@@H](Cc3c[nH]c4ccccc34)C(=O)N[C@@H](CCC(N)=O)C(=O)N[C@@H](CCC(=O)N2)C(=O)N[C@@H](Cc2ccc(OCCN)cc2)C(=O)N[C@@H](Cc2ccc3ccccc3c2)C(=O)N[C@@](C)(CC(C)C)C(=O)N1 [Compound 106] (WQE[AEF][2Nal][αMeL]K[Dab][3Pal]-NHMe; linker N-3-7 via X14) and report it.
99

# evaluate next
Find the measured % displacement (hIL-23R NIuc) of CC[C@H](C)[C@@H]1NC(=O)[C@@H]2CCCCNC(=O)CC[C@@H](C(=O)N[C@@H](CCN)C(=O)N[C@@H](Cc3cncnc3)C(=O)NC)NC(=O)[C@](C)(CC(C)C)NC(=O)[C@H](Cc3ccc4ccccc4c3)NC(=O)[C@H](Cc3ccc(OCCN)cc3)NC(=O)[C@H](CCC(=O)N2)NC(=O)[C@H](CCC(N)=O)NC(=O)[C@H](Cc2c[nH]c3ccccc23)NC(=O)[C@H](C(C)C)NC1=O [Compound 78] and report it.
100
